# assayed_system: SOS1:KRAS (G12C) interaction (Homo sapiens (Human))
# Sequence (Q07889 564-1049, stated change not applied): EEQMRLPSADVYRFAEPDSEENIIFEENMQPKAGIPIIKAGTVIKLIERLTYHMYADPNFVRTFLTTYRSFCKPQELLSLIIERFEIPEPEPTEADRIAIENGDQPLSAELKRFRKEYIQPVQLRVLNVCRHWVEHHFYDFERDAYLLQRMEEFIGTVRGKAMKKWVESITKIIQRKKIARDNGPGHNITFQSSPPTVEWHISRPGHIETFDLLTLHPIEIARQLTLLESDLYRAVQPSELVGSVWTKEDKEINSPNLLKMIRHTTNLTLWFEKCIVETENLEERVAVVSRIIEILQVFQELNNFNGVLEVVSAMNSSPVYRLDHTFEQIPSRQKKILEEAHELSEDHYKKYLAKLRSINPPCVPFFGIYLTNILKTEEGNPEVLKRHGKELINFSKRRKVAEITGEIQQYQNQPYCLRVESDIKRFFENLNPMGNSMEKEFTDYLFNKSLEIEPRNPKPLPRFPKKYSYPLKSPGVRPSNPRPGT
# assay_info: SOS1 KRas(G12C) FRET Assay
# experimental_setup: 0.5 nM His10-SOS1 (res. 564-1049), 2.5 nM GST-KRAS G12C (res. 1-169), 2 hrs at RT
pIC50: −log10 of the molar value.
observable: pIC50

Some molecules with recorded pIC50:
Cc1c([C@@H](C)NC(=O)c2cn(C3CCOCC3)c(=O)cc2N[C@H]2C[C@H]3CC[C@@H]2N3C)cccc1C(F)(F)F (single isomer, unassigned) [Example 38]
7.34
C[C@@H](NC(=O)c1cn(C23COC(C2)C3)c(=O)cc1N[C@H]1[C@@H]2CN(C)C[C@@H]21)c1cccc(C(F)F)c1F [Example 192]
7.89

a. C[C@@H](NC(=O)c1cn(C2(C(F)F)CC2)c(=O)cc1N[C@@H]1CCN(C)C[C@@H]1F)c1cccc(C(F)F)c1F (single isomer, unassigned) [Example 63]
b. C[C@@H](NC(=O)c1cn(C2(C(F)F)CC2)c(=O)cc1N[C@@H]1C[C@@H]2CN(C)C[C@@H]2C1)c1cccc(C(F)F)c1F (single isomer, unassigned) [Example 124]
Ask: In the pair a and b , the larger recorded pIC50 belongs to which? Your choice should be expressed through its label.
Reply: a
(a: 7.95, b: 7.50)
